# pIC50 per record follows
Test system: Plasmodium falciparum
Test: In vitro antimalarial activity against chloroquine-sensitive Plasmodium falciparum NF 54
Type: functional, organism-based
As a rule, pIC50 stands for the negative log10 of the concentration, concentration in M.

C[C@@H]1CC[C@H]2[C@@H](C)C(CC(O)(CC3OC4O[C@]5(C)CC[C@H]6[C@H](C)CC[C@@H]([C@H]3C)C46OO5)CS(=O)(=O)c3ccc(C(=O)O)cc3)OC3O[C@]4(C)CCC1C32OO4 (stereo partly specified) | 8.62
C=C(CC1OC2O[C@]3(C)CCC4[C@H](C)CC[C@@H]([C@H]1C)C24OO3)CC1OC2O[C@]3(C)CC[C@H]4[C@H](C)CC[C@@H]([C@H]1C)C24OO3 (stereo partly specified) | 7.62
C[C@@H]1CC[C@H]2[C@@H](C)C(=O)O[C@@H]3O[C@@]4(C)CC[C@@H]1[C@]32OO4 [ARTEMISININ] | 8.05
C[C@@H]1CC[C@H]2[C@@H](C)C(CC(COC(=O)c3ccncc3)CC3OC4O[C@]5(C)CC[C@H]6[C@H](C)CC[C@@H]([C@H]3C)C46OO5)OC3O[C@]4(C)CCC1C32OO4 (stereo partly specified) | 8.77
C[C@@H]1CC[C@H]2[C@@H](C)C(CC(COC(=O)CCC(=O)O)CC3OC4O[C@]5(C)CC[C@H]6[C@H](C)CC[C@@H]([C@H]3C)C46OO5)OC3O[C@]4(C)CCC1C32OO4 (stereo partly specified) | 8.70
C[C@@H]1CC[C@H]2[C@@H](C)C(CC(=O)CC3OC4O[C@]5(C)CC[C@H]6[C@H](C)CC[C@@H]([C@H]3C)C46OO5)OC3O[C@]4(C)CCC1C32OO4 (stereo partly specified) | 9.04

# next compound below
stdin: Would you please give the reported pIC50 of C[C@@H]1CC[C@H]2[C@@H](C)C(CC(CO)CC3OC4O[C@]5(C)CC[C@H]6[C@H](C)CC[C@@H]([C@H]3C)C46OO5)OC3O[C@]4(C)CCC1C32OO4 (stereo partly specified) with Plasmodium falciparum?
stdout: 9.06

###

Tested on: Plasmodium falciparum
Experiment: In vitro antimalarial activity against chloroquine-sensitive Plasmodium falciparum NF 54
Format: functional, organism-based
measured property: IC50 (nM)
Provide the reading as a plain figure in nM.

Check out these entries, answers already filled in.
C[C@H]1[C@@H](CC(O)(CO)C[C@H]2O[C@@H]3O[C@]4(C)CC[C@H]5[C@H](C)CC[C@@H]([C@H]2C)[C@@]35OO4)O[C@@H]2O[C@]3(C)CC[C@H]4[C@H](C)CC[C@@H]1[C@@]24OO3 (some centres undefined) | 0.59
C[C@@H]1CC[C@H]2[C@@H](C)C(CC(O)(COC(=O)CCC(=O)O)CC3OC4O[C@]5(C)CC[C@H]6[C@H](C)CC[C@@H]([C@H]3C)C46OO5)OC3O[C@]4(C)CCC1C32OO4 (some centres undefined) | 3
C[C@@H]1CC[C@H]2[C@@H](C)C(CC(O)(CC3OC4O[C@]5(C)CC[C@H]6[C@H](C)CC[C@@H]([C@H]3C)C46OO5)c3ccc(C(=O)O)cc3)OC3O[C@]4(C)CCC1C32OO4 (some centres undefined) | 2.1

stdin: State recorded IC50 with Plasmodium falciparum, entry C[C@@H]1CC[C@H]2[C@@H](C)C(CC3(CC4OC5O[C@]6(C)CC[C@H]7[C@H](C)CC[C@@H]([C@H]4C)C57OO6)CO3)OC3O[C@]4(C)CCC1C32OO4 (some centres undefined) , no comment.
stdout: 2.8
